meta.source: patent US20240132484A1

- Test system: cells (nuclei count)
- runParameters: 50 μM; toxicity data; 100=DMSO control
Readings of Relative cell count to DMSO controls, Average 50 μM for the listed compounds
property: Relative cell count to DMSO controls, Average 50 μM

compound	result
COC(=O)c1csc(CN(CCN(C)C)Cc2ccccc2)c1	86.57
Cc1csc(CN(CCN(C)C)Cc2ccco2)c1	53.52
COc1ccc(C2NC(=O)NC(C)=C2C(=O)NCC2CCCCC2)cc1OC (centres unmarked)	78.57
COc1ccc(CNCCc2ccccc2F)c(OCC(O)CN2CCN(C)CC2)c1 (racemic) [SILCS41]	101.49
COc1ccc(CNCCc2ccccc2F)c(OCC(O)CN2CCN(C)CC2)c1 (racemic) [UMB18G]	85.72
COc1ccc(C2NC(=O)NC(C)=C2C(=O)NCC2CCC2)cc1OC (centres unmarked)	75.66
COC(=O)c1csc(CN(CCN(C)C)Cc2cccs2)c1	67.81
CN1CCN(CC(O)COc2c(CNCCc3ccccc3F)cccc2C2CCCCC2)CC1 (centres unmarked)	2.18

====

- Tested on: SARS2
- Type: cell-based, SARS-CoV-2

molecule	SARS2 antiviral activity
COC(=O)c1csc(CN(CCN(C)C)Cc2ccccc2)c1 [SILCS30]	decrease in activity
COC(=O)c1csc(CN(CCN(C)C)Cc2ccsc2)c1 [SILCS31]	decrease in activity

====

- System: cells (nuclei count)
- runParameters: 5 μM; toxicity data; 100=DMSO control
property: Relative cell count to DMSO controls, Average 5 μM

compound	result
COC(=O)c1csc(CN(CCN(C)C)Cc2cccs2)c1 [SILCS29]	110.81
COc1ccc(C2NC(=O)NC(C)=C2C(=O)NCc2ccccc2)cc1OC (centres unmarked) [SILCS48]	115.84
COc1ccc(C2NC(=O)NC(C)=C2C(=O)NC2CCCCCC2)cc1OC (centres unmarked) [SILCS59]	119.78
CC1=C(C(=O)NCc2ccccc2)C(c2scc3c2OCCO3)NC(=O)N1 (centres unmarked) [SILCS66]	109.01
CN(C)CCN(Cc1ccsc1)Cc1cccc(-c2ccsc2)c1 [SILCS20]	116.85
CC1=C(C(=O)NCc2ccccc2)C(c2ccc(C)o2)NC(=O)N1 (centres unmarked) [SILCS69]	113.8
CC1=C(C(=O)NC2CCCCCC2)C(c2cccs2)NC(=O)N1 (centres unmarked) [SILCS61]	110.71
CCOc1cccc(CNCCc2ccccc2F)c1OCC(O)CN1CCN(C)CC1 (centres unmarked) [SILCS3]	125.56

====

# Infection Data, Average, Mean per record follows
- System: SARS2
- Format: cell-based, SARS-CoV-2
- runParameters: average of Exp 1-3 (SMW475, SMW477, SMW478), n 9, 50 uM
property: Infection Data, Average, Mean (%)

molecule	property	result
COC(=O)c1csc(CN(CCN(C)C)Cc2ccccc2)c1 [SILCS30]	Infection Data, Average, Mean	24.84
CN(C)CCN(Cc1cocn1)Cc1cccs1 [SILCS35]	Infection Data, Average, Mean	115.34
CCN(CC)CCN(Cc1ccccn1)Cc1ccc(C)o1 [SILCS36]	Infection Data, Average, Mean	27.37
COC(=O)c1csc(CN(CCN(C)C)Cc2cccs2)c1 [SILCS29]	Infection Data, Average, Mean	6.32
CCN(CC)CCN(Cc1ccccc1)Cc1ccccn1 [SILCS33]	Infection Data, Average, Mean	60.31
CCN(CC)CCN(Cc1cccs1)C(=O)c1cccs1 [SILCS34]	Infection Data, Average, Mean	99.38
COC(=O)c1csc(CN(CCN(C)C)Cc2ccsc2)c1 [SILCS31]	Infection Data, Average, Mean	22.63
